Assay: Ability to inhibit calf thymus topoisomerase I when assayed in the cleavable complex formation
readout_type: IC50 (nM)
Give bare numbers, in nM.

[
  {
    "structure_smiles": "CC[C@@]1(O)C(=O)OCc2c1cc1n(c2=O)Cc2cc3cc(N)c(O)cc3nc2-1",
    "IC50 (nM)": 170
  }
]

Shift focus to the following entry.
Q: Check the records and state IC50 for `CC[C@@]1(O)C(=O)OCc2c1cc1n(c2=O)Cc2cc3cc4ncoc4cc3nc2-1`
Result: 150
